# Tested on: NCI-H292 lung cancer cells
# test_details: FDA drug screening, complete media vs cholesterol-free media without statin (TABLE 1)
# Assay type: cell-based, human
# experimental_parameters: complete vs cholesterol-free media; greater than 0 enhanced anti-cancer activity, about 0 neutral, below 0 antagonists
Would you kindly list Difference for each of these molecules?
Give bare numbers.

# molecule, tested_system, experimental_endpoint, value
rows = [
    ("Cc1ncc([N+](=O)[O-])n1CC(O)CN1CCOCC1 (centres unmarked) [Morinidazole]", "NCI-H292 lung cancer cells", "Difference", "−0.33"),
    ("Cc1c(Cl)cccc1Nc1ccccc1C(=O)O [Tolfenamic Acid]", "NCI-H292 lung cancer cells", "Difference", "−0.40"),
    ("N#Cc1ccc(C(c2ccc(C#N)cc2)n2cncn2)cc1 [Letrozole]", "NCI-H292 lung cancer cells", "Difference", "−0.32"),
    ("C[C@]12CCC(=O)C=C1[C@@H]1C[C@@H]1[C@H]1[C@@H]3[C@@H]4C[C@@H]4[C@@]4(CCC(=O)O4)[C@@]3(C)CC[C@@H]12 [Drospirenone]", "NCI-H292 lung cancer cells", "Difference", "−0.32"),
    ("C[C@H](CCC(=O)O)[C@H]1CC[C@H]2[C@@H]3C[C@H](O)[C@@H]4C[C@H](O)CC[C@]4(C)[C@H]3CC[C@]12C [Hyodeoxycholic acid]", "NCI-H292 lung cancer cells", "Difference", "−0.45"),
    ("CC(=O)OCC[N+](C)(C)C.[I-] [Acetylcholine (iodide)]", "NCI-H292 lung cancer cells", "Difference", "−0.35"),
]

Dear colleague, could you send me Difference for each of the items below? Thanks.
1. Cc1cnc(C(=O)NCCc2ccc(S(=O)(=O)NC(=O)NC3CCCCC3)cc2)cn1 [Glipizide]
2. O=C1[C@H]2CCCC[C@H]2C(=O)N1CCCCN1CCN(c2nsc3ccccc23)CC1 [Perospirone]

["−0.38", "−0.33"]
